# Experimental system: COX-1 (Homo sapiens)
# Construct: host or cells: U-937 human lymphoma cells
# Sequence (P23219 24-599): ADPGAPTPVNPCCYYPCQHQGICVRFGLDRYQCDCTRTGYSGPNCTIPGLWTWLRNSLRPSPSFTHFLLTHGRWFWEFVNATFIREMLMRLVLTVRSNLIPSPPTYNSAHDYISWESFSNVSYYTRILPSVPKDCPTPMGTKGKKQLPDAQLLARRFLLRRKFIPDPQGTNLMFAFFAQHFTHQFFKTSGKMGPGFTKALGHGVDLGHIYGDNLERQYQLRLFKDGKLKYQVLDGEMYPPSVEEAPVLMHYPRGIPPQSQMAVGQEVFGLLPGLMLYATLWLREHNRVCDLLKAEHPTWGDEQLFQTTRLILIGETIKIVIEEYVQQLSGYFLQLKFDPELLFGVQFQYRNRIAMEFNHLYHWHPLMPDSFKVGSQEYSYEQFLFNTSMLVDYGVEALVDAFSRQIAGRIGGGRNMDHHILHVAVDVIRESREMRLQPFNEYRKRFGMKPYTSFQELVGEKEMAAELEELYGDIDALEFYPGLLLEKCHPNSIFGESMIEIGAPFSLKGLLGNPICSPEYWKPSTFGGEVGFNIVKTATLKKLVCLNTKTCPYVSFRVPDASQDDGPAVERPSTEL
# Test summary: Assay for the COX-1 inhibitory activity using U-937 (PGE2 inhibition)
# Format: cell-based
# Run conditions: 1 μM test compound; U-937 human lymphoma cells; PGE2 after arachidonic acid; read-out: Cyclooxygenase (COX) Inhibition (%) COX-1 (1 μM)
Property label: inhibition at 1 µM

[[record]]
smiles_str = "COc1ccc(-c2nc(OC3CCCCC3)nn2-c2ccc(S(N)(=O)=O)cc2)cc1"
measured_value = "15.5%"

[[record]]
smiles_str = "NS(=O)(=O)c1ccc(-n2nc(OCCCl)nc2-c2ccccc2)cc1"
measured_value = "21.4%"

[[record]]
smiles_str = "NS(=O)(=O)c1ccc(-n2nc(OC3CCCCC3)nc2-c2ccc(F)cc2)cc1"
measured_value = "16.2%"

[[record]]
smiles_str = "CCOc1nc(-c2ccccc2)n(-c2ccc(S(N)(=O)=O)cc2)n1"
measured_value = "15.5%"


Given the entry COc1ccc(-c2nc(OCc3ccccc3)nn2-c2ccc(S(N)(=O)=O)cc2)cc1F , report its measured inhibition at 1 µM.
28%

* * *

# Experimental system: COX-2 (Mus musculus)
# Construct: host or cells: RAW 264.7 cells, aspirin-pretreated, then induced with interferon gamma and LPS
# Test summary: Assay for the COX-2 inhibitory activity using RAW 264.7 cell line (PGE2 inhibition)
# Type: cell-based
# Run conditions: RAW264.7, 10 nM test compound, RAW 264.7 cells, interferon γ and LPS, 18 hours, read-out: Cyclooxygenase (COX) Inhibition (%) COX-2 (10 nM)
Property label: inhibition at 0.01 µM (%)
Lab book: enter the figure in %, no units written.

Some solved entries appear below for comparison.
[[record]]
smiles_str = "NS(=O)(=O)c1ccc(-n2nc(S)nc2-c2ccccc2)cc1"
measured_value = 12.6

[[record]]
smiles_str = "CC(C)Oc1nc(-c2ccccc2)n(-c2ccc(S(C)(=O)=O)cc2)n1"
measured_value = 33.1

[[record]]
smiles_str = "CCCOc1nc(-c2ccc(OC)cc2)n(-c2ccc(S(N)(=O)=O)cc2)n1"
measured_value = 16.1

[[record]]
smiles_str = "CCOc1nc(-c2ccc(OC)c(F)c2)n(-c2ccc(S(N)(=O)=O)cc2)n1"
measured_value = 10.5

[[record]]
smiles_str = "NS(=O)(=O)c1ccc(-n2nc(O)nc2-c2ccc(Br)cc2)cc1"
measured_value = 12.3


Name the reported inhibition at 0.01 µM value associated with the compound COc1nc(-c2ccc(F)cc2)n(-c2ccc(S(N)(=O)=O)cc2)n1
13.5

* * *

# Experimental system: COX-2 (Mus musculus, UniProt Q05769)
# Construct: host or cells: RAW 264.7 cells, aspirin-pretreated, then induced with interferon gamma and LPS
# Sequence (Q05769 18-604): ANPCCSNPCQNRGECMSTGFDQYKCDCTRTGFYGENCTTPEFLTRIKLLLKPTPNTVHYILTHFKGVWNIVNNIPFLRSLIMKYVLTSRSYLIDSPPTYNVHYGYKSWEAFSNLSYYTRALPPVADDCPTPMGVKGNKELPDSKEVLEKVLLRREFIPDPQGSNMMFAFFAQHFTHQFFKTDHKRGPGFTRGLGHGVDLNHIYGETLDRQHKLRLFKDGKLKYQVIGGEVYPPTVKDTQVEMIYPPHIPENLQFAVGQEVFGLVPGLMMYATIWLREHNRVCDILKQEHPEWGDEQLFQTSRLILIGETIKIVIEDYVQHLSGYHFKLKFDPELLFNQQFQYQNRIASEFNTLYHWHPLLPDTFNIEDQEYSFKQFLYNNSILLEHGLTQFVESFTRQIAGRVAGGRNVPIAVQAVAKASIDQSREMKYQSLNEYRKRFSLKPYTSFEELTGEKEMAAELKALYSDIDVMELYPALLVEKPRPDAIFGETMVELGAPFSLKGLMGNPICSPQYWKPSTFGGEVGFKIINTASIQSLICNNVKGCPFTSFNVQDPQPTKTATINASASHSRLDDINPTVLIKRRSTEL
# Test summary: Assay for the COX-2 inhibitory activity using RAW 264.7 cell line (PGE2 inhibition)
# Format: cell-based
# Run conditions: RAW264.7, 10 nM test compound, RAW 264.7 cells, interferon γ and LPS, 18 hours, read-out: Cyclooxygenase (COX) Inhibition (%) COX-2 (10 nM)
Property label: inhibition at 0.01 µM (%)
Numeric answer only, unit % assumed.

Examples with their reported inhibition at 0.01 µM follow.
[[record]]
smiles_str = "C#CCSc1nc(-c2ccccc2)n(-c2ccc(S(N)(=O)=O)cc2)n1"
experimental_system = "COX-2 (Mus musculus, UniProt Q05769)"
output_unit = "%"
measured_value = 13.3

[[record]]
smiles_str = "COc1nc(-c2ccc(Br)cc2)n(-c2ccc(S(N)(=O)=O)cc2)n1"
experimental_system = "COX-2 (Mus musculus, UniProt Q05769)"
output_unit = "%"
measured_value = 11.5

[[record]]
smiles_str = "COc1ccc(-c2nc(OC)nn2-c2ccc(S(N)(=O)=O)cc2)cc1"
experimental_system = "COX-2 (Mus musculus, UniProt Q05769)"
output_unit = "%"
measured_value = 31.2

[[record]]
smiles_str = "COc1ccc(-c2nc(OC3CCCCC3)nn2-c2ccc(S(N)(=O)=O)cc2)cc1"
experimental_system = "COX-2 (Mus musculus, UniProt Q05769)"
output_unit = "%"
measured_value = 20.7

[[record]]
smiles_str = "C#CCOc1nc(-c2ccc(F)cc2)n(-c2ccc(S(N)(=O)=O)cc2)n1"
experimental_system = "COX-2 (Mus musculus, UniProt Q05769)"
output_unit = "%"
measured_value = 14.5


Look at this molecule and give its reported inhibition at 0.01 µM. C=CCOc1nc(-c2ccc(F)cc2)n(-c2ccc(S(N)(=O)=O)cc2)n1
15.5

# query: inhibition at 0.01 µM of entry COc1ccc(-c2nc(OCC(F)(F)F)nn2-c2ccc(S(N)(=O)=O)cc2)cc1
16.2
